- Test system: Microbacterium otitidis
- test-method-notes: In vitro activity (MIC) by agar and broth dilution methods against clinical isolates
- Assay type: cell-based
- experimental-context: clinical isolate MCC 11676; read-out: minimum inhibitory concentration (MIC)
Response field label: string, one of satisfied (MIC strictly below 1 µg/mL) or not satisfied.

// below: answered molecules
>  <molecule>
Cc1onc(-c2ccccc2)c1C(=O)N[C@@H]1C(=O)N2[C@@H]1SC(C)(C)[C@@H]2C(=O)O

>  <subject-of-test>
Microbacterium otitidis

>  <discrete-label>
not satisfied

$$$$
>  <molecule>
CCC[C@@H]1C[C@@H](C(=O)N[C@@H]([C@H]2O[C@H](SC)[C@H](O)[C@@H](O)[C@H]2O)[C@H](C)Cl)N(C)C1

>  <subject-of-test>
Microbacterium otitidis

>  <discrete-label>
satisfied

$$$$
>  <molecule>
NC[C@H]1O[C@H](O[C@H]2[C@H](O)[C@@H](O[C@H]3O[C@H](CO)[C@@H](O)[C@H](N)[C@H]3O)[C@H](N)C[C@@H]2N)[C@H](N)C[C@@H]1O

>  <subject-of-test>
Microbacterium otitidis

>  <discrete-label>
not satisfied

$$$$
>  <molecule>
CC[C@H]1OC(=O)[C@H](C)[C@@H](O[C@H]2C[C@@](C)(OC)[C@@H](O)[C@H](C)O2)[C@H](C)[C@@H](O[C@@H]2O[C@H](C)C[C@H](N(C)C)[C@H]2O)[C@](C)(O)C[C@@H](C)C(=O)[C@H](C)[C@@H](O)[C@]1(C)O

>  <subject-of-test>
Microbacterium otitidis

>  <discrete-label>
satisfied

$$$$

Query :: Hi there! Is MIC for CC1COc2c(N3CCN(C)CC3)c(F)cc3c(=O)c(C(=O)O)cn1c23 (stereo not shown) below 1 µg/mL, do you know?
Result :: not satisfied
